- test-system: Sodium channel protein type 5 subunit alpha (Homo sapiens, UniProt Q14524)
- Sequence (Q14524 whole entry): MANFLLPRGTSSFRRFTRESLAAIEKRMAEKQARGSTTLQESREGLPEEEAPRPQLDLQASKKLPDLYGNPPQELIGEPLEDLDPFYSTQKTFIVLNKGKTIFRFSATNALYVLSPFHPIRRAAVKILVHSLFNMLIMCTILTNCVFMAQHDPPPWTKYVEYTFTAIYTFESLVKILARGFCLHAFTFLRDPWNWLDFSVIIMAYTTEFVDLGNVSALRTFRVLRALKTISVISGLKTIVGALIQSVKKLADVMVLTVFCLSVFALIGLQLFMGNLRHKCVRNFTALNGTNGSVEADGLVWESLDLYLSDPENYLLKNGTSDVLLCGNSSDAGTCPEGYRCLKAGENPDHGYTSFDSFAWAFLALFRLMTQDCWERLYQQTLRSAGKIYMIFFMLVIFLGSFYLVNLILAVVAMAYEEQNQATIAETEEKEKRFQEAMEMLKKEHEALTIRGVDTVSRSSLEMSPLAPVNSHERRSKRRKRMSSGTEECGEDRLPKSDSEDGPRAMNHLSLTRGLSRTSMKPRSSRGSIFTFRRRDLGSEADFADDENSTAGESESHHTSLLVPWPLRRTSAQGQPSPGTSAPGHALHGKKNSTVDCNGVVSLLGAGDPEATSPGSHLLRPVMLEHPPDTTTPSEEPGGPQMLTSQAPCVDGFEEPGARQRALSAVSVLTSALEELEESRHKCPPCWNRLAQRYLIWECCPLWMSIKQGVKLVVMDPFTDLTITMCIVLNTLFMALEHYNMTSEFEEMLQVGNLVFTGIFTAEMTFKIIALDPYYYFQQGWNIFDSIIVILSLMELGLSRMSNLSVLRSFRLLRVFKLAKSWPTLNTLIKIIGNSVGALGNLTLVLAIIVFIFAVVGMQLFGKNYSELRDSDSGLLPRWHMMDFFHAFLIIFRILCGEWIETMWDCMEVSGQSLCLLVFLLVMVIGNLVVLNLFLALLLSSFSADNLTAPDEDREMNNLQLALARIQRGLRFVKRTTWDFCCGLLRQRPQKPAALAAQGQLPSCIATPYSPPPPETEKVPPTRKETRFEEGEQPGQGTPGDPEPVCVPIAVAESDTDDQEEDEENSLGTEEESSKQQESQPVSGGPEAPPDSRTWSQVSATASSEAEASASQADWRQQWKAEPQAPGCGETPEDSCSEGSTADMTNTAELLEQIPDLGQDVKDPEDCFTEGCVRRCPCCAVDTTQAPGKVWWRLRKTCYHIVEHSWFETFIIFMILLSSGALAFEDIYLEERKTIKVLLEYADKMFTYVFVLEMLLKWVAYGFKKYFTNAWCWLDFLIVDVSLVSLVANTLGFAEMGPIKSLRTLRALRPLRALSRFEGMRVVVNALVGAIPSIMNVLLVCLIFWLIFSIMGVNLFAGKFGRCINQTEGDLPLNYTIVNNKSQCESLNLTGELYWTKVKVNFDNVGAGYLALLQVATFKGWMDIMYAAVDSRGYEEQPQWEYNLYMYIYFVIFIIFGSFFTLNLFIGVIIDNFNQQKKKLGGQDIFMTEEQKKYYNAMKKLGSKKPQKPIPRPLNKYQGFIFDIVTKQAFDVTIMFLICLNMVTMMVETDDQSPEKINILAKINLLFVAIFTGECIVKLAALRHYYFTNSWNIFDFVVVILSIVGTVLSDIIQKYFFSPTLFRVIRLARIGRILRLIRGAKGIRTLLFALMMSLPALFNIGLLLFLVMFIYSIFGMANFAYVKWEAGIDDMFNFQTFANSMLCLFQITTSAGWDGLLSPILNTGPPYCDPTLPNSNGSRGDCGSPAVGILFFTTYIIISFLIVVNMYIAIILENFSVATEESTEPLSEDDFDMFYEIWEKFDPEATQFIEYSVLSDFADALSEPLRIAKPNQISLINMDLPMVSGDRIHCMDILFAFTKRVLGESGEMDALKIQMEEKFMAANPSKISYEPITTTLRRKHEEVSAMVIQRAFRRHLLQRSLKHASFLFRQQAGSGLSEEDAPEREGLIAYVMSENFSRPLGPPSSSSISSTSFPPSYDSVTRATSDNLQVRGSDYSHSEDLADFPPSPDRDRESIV
- protocol-description: Inhibition of human Nav1.5 expressed in HEK293 cells by QPatch voltage clamp assay
observed-property: pIC50
Answers are plain numbers, as −log10 of the molar value.

Problem: # pIC50 lookup, item C[C@@]1(N2CCC(c3cc4cc(NC(=O)C5CC56CC6)ncc4cc3Cl)CC2)COC[C@@H]1O (stereo partly specified)
Solution: 4.55

* * *

- protocol-description: Total clearance in Beagle dog at […], iv measured after 24 hrs by LC-MS/MS analysis
- Format: ADME, organism-based, Canis lupus familiaris
- particulars: in vivo, dose 0.25 mg/kg
observed-property: clearance at 24 h
Answer with the number, then the unit.

Problem: Fill in the blank: the reported clearance at 24 h of C[C@@]1(N2CCC(c3cc4cc(NC(=O)C5CC56CC6)ncc4cc3Cl)CC2)COC[C@@H]1O (stereo partly specified) is ____.
Solution: 9 mL/min/kg

* * *

- protocol-description: AUC in Wistar-Han rat at 50 mg/kg by LC-MS/MS analysis
- Type: ADME, organism-based
- Parameters: dose 50 mg/kg
- particulars: in vivo
observed-property: AUC (µM·h)
One number for each entry, in µM·h.

Problem: Field request: AUC | item: C[C@@]1(N2CCC(c3cc4cc(NC(=O)C5CC56CC6)ncc4cc3Cl)CC2)COC[C@@H]1O (stereo partly specified)
Solution: 111

* * *

- test-system: Serine/threonine-protein kinase BRSK1 (Homo sapiens, UniProt Q8TDC3)
- Sequence (Q8TDC3 whole entry): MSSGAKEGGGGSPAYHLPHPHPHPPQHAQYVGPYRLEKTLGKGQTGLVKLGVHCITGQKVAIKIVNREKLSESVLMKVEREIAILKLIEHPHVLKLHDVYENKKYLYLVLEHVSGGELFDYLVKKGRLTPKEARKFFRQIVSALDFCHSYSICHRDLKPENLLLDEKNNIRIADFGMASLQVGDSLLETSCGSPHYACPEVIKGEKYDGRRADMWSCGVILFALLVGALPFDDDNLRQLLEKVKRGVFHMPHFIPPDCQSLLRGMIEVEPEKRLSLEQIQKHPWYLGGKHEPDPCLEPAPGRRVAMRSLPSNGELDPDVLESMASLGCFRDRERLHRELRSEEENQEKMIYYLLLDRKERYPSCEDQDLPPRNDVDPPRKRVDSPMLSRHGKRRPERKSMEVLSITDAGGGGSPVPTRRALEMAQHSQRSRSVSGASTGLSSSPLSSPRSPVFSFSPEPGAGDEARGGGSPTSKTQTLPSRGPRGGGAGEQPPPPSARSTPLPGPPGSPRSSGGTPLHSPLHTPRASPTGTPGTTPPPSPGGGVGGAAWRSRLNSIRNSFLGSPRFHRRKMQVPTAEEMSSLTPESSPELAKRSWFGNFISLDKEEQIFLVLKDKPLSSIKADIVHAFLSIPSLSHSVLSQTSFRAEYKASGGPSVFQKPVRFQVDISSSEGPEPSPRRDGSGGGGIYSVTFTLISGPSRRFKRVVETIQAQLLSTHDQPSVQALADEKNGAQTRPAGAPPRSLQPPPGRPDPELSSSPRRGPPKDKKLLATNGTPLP
observed-property: IC50 (nM)
Answers are plain numbers, in nM.

Problem: Name the reported IC50 value associated with the molecule C[C@@]1(N2CCC(c3cc4cc(NC(=O)C5CC5)ncc4cc3Cl)CC2)COC[C@@H]1O
Solution: 43

* * *

- protocol-description: AUC in rhesus monkey at 100 mg/kg, po administered once daily for 7 days
- Type: ADME, organism-based, Macaca mulatta
- Parameters: dose 100 mg/kg, time 7 day, route po
- particulars: in vivo
observed-property: AUC at 168 h

Problem: Please look up its AUC at 168 h: C[C@@]1(N2CCN(c3cc4cc(NC(=O)[C@H]5CC56CCOCC6)ncc4cc3Cl)CC2)COC[C@@H]1O
Solution: 14 µM·h

* * *

- protocol-description: Intrinsic clearance in Wistar-Han rat at 0.1 mg/kg, iv administered as cassette dose by LC-MS/MS analysis
- Assay type: ADME, organism-based
- particulars: in vivo
Give measured CL for each item. Keep answers brief.
Answers are plain numbers, in mL/min/kg.

Examples from the recorded data:
molecule	units-label	CL
CC(C)(O)[C@H]1C[C@H]1C(=O)Nc1cc2cc(C3CCN([C@]4(C)COC[C@@H]4O)CC3)c(Cl)cc2cn1	mL/min/kg	276
Cn1ccc([C@H]2C[C@@H]2C(=O)Nc2cc3cc(C4CCN([C@]5(C)COC[C@@H]5O)CC4)c(Cl)cc3cn2)n1	mL/min/kg	731
CC1(N2CCC(c3cc4cc(NC(=O)C5CC5)ncc4cc3Cl)CC2)COC1	mL/min/kg	429

Now for a further molecule.
Problem: Fill in: CL of Cc1cc2cnc(NC(=O)C3CC34CC4)cc2cc1C1CCN([C@]2(C)COC[C@@H]2O)CC1 (some centres undefined) is ___
Solution: 241

* * *

- protocol-description: Oral bioavailability in Wistar-Han rat at 10 mg/kg measured after 24 hrs by LC-MS/MS analysis
- Type: ADME, organism-based
- particulars: in vivo
observed-property: bioavailability
In your response, put the unit directly after the numeric value.

Problem: Look up bioavailability: C[C@@]1(N2CCC(c3cc4cc(NC(=O)[C@H]5CC56CCOCC6)ncc4cc3Cl)CC2)COC[C@@H]1O
Solution: 67%

* * *

- protocol-description: Total clearance in Wistar-Han rat at 0.1 mg/kg, iv administered as cassette dose by LC-MS/MS analysis
- Type: ADME, organism-based
- particulars: in vivo
observed-property: clearance (mL/min/kg)
Answers are plain numbers, in mL/min/kg.

molecule	clearance, mL/min/kg
Cn1ccc([C@H]2C[C@@H]2C(=O)Nc2cc3cc(C4CCN([C@]5(C)COC[C@@H]5O)CC4)c(Cl)cc3cn2)n1	21

For each of the molecules below, note its clearance.
1. CC(C)(O)[C@H]1C[C@H]1C(=O)Nc1cc2cc(C3CCN([C@]4(C)COC[C@@H]4O)CC3)c(Cl)cc2cn1
2. C[C@@]1(N2CCC(c3cc4cc(NC(=O)C5CC5)ncc4cc3Cl)CC2)COC[C@@H]1O
3. CC1(N2CCC(c3cc4cc(NC(=O)C5CC5)ncc4cc3Cl)CC2)COC1
4. COC(C)(C)[C@@H]1C[C@H]1C(=O)Nc1cc2cc(C3CCN([C@]4(C)COC[C@@H]4O)CC3)c(Cl)cc2cn1
5. Cc1cc2cnc(NC(=O)C3CC34CC4)cc2cc1C1CCN([C@]2(C)COC[C@@H]2O)CC1 (some centres not stated)
6. Cn1cc([C@H]2C[C@@H]2C(=O)Nc2cc3cc(C4CCN([C@]5(C)COC[C@@H]5O)CC4)c(Cl)cc3cn2)cn1

Solution:
22
12
10
41
31
17

* * *

- test-system: Leucine-rich repeat serine/threonine-protein kinase 2 (Homo sapiens) (UniProt Q5S007)
- Sequence (Q5S007 whole entry): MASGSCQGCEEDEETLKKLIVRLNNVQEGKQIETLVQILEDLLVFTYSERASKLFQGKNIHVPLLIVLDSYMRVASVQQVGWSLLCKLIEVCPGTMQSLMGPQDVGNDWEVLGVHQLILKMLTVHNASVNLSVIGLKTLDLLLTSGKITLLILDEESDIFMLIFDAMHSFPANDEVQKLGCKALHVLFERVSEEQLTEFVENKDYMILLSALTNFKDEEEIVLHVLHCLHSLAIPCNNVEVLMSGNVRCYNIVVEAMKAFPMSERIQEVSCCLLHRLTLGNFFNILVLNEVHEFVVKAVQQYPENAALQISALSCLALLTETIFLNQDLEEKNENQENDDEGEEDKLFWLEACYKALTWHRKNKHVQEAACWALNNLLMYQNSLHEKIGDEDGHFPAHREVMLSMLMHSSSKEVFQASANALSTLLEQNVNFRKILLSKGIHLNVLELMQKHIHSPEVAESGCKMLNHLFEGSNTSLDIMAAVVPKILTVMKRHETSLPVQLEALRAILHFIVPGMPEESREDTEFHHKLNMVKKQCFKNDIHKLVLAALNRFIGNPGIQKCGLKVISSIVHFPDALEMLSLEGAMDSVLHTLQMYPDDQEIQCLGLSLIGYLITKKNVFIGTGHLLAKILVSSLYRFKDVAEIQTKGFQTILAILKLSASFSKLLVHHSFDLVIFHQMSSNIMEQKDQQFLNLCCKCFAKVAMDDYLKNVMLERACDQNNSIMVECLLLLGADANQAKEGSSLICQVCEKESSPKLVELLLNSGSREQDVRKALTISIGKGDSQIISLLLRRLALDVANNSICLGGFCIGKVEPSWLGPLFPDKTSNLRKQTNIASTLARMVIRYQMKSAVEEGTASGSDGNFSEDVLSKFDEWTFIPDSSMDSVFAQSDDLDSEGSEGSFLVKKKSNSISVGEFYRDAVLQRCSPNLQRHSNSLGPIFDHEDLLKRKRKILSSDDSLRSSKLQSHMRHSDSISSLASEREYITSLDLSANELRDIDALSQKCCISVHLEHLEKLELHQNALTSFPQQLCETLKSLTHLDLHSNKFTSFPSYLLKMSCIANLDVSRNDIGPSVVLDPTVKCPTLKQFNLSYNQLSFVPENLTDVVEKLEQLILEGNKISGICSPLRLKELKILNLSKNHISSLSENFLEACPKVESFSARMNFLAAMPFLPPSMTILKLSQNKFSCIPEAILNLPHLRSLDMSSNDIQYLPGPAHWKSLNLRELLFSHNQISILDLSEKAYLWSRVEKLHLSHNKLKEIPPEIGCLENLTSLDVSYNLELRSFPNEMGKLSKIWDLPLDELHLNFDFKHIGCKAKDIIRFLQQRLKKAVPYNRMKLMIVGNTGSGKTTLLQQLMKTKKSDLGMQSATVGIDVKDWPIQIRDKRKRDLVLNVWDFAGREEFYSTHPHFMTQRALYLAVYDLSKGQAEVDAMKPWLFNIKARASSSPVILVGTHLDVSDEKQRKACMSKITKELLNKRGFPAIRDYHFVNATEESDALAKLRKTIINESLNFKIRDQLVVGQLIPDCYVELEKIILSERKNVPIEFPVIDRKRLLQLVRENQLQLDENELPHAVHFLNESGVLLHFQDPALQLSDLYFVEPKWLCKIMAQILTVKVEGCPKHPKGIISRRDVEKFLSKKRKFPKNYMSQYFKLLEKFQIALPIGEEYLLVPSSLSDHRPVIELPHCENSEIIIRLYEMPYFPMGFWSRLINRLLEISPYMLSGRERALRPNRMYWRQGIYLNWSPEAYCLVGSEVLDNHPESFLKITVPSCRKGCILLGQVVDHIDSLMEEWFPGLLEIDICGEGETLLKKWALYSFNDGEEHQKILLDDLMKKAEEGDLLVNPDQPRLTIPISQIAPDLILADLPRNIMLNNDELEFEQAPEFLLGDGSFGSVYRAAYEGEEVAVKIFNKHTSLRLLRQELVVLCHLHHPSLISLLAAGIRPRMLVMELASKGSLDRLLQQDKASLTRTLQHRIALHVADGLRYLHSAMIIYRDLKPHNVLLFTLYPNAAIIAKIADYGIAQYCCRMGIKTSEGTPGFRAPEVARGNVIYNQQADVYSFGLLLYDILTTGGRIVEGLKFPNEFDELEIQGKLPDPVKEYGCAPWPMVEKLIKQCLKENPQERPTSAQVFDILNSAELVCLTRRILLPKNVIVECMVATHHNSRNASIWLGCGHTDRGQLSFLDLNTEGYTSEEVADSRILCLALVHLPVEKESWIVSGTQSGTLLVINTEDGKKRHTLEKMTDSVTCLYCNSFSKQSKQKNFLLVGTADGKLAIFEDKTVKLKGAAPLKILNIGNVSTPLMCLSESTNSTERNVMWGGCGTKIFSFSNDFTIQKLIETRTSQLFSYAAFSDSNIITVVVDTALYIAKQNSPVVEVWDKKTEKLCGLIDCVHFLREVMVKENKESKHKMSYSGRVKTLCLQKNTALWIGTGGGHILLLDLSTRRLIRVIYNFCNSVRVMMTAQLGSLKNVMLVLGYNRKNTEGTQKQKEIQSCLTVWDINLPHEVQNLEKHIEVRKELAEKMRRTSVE
- protocol-description: Inhibition of LRRK2 in human PBMC using LRRKtide peptide as substrate assessed as Ser935 dephosphorylation preincubated with compound for 15 mins followed by substrate addition and measured after 90 mins in presence of ATP by TR-FRET assay
- Format: cell-based
- particulars: time 105.0 min
Assignment: determine reported fIC50 for the given compounds.
One number for each entry, in nM.

Below: 5 compounds and their reported fIC50.
compound	observed-property	units-label	recorded-measurement
C[C@@]1(N2CCC(c3cc4cc(NC(=O)[C@H]5C[C@@H]5c5ccccn5)ncc4cc3Cl)CC2)COC[C@@H]1O	fIC50	nM	0.2
C[C@@]1(N2CCC(c3cc4cc(NC(=O)C5CC5)ncc4cc3Cl)CC2)COC[C@@H]1O	fIC50	nM	4.5
Cn1ccc([C@H]2C[C@@H]2C(=O)Nc2cc3cc(C4CCN([C@]5(C)COC[C@@H]5O)CC4)c(Cl)cc3cn2)n1	fIC50	nM	1.2
CC1(N2CCC(c3cc4cc(NC(=O)C5CC5)ncc4cc3Cl)CC2)COC1	fIC50	nM	168
Cc1cc2cnc(NC(=O)C3CC34CC4)cc2cc1C1CCN([C@]2(C)COC[C@@H]2O)CC1 (some centres undefined)	fIC50	nM	12

Please look at the items below and tell me fIC50 for each one, in order.
1. C[C@@]1(N2CCN(c3cc4cc(NC(=O)[C@H]5CC56CCOCC6)ncc4cc3Cl)CC2)COC[C@@H]1O
2. Cn1cc(C(=O)Nc2cc3cc(C4CCN([C@]5(C)COC[C@@H]5O)CC4)c(Cl)cc3cn2)cn1
3. Cn1cc([C@H]2C[C@@H]2C(=O)Nc2cc3cc(C4CCN([C@]5(C)COC[C@@H]5O)CC4)c(Cl)cc3cn2)cn1
4. C[C@@]1(N2CCC(c3cc4cc(NC(=O)C5CC56CC6)ncc4cc3Cl)CC2)COC[C@@H]1O (some centres undefined)

Solution:
2.8
112
0.28
2.8

These measurements were taken from ChEMBL document CHEMBL5370643.
